B1: library; numbered along this chain (parent)
chain: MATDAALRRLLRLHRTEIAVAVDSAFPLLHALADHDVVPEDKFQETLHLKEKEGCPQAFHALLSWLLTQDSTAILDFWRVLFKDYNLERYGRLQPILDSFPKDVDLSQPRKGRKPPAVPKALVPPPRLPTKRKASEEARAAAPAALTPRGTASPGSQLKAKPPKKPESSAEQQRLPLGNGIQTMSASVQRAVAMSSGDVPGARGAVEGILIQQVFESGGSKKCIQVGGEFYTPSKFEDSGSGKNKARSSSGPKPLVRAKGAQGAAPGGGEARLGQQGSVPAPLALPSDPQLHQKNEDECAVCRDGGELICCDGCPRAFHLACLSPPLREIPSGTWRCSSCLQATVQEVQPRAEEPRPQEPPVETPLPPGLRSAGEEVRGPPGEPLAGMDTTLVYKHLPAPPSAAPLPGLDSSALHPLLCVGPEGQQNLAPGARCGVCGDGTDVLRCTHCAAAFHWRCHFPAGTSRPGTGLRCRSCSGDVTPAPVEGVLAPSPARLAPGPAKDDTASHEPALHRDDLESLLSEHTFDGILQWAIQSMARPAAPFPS

Variants of: B1
assay.name: AIRE transcriptional activation functional score (insulin promoter-GFP; nonsense median 0, synonymous median 1) (normalised score); higher = higher AIRE activity (more reporter activation)
test.context: with insulin promoter-GFP reporter in HEK293
# label = yes if AIRE transcriptional activation functional score >= 0.8 else no

Decide: is the reported value of AIRE transcriptional activation functional score for E383M equal to or greater than 0.8?
no

Decide: is the reported value of AIRE transcriptional activation functional score for L406C equal to or greater than 0.8?
yes

Decide: is the reported value of AIRE transcriptional activation functional score for E167T equal to or greater than 0.8?
no

Decide: is the reported value of AIRE transcriptional activation functional score for I330F equal to or greater than 0.8?
yes

Decide: is the reported value of AIRE transcriptional activation functional score for A284V equal to or greater than 0.8?
yes

Decide: is the reported value of AIRE transcriptional activation functional score for E17R equal to or greater than 0.8?
no

Decide: is the reported value of AIRE transcriptional activation functional score for P109A equal to or greater than 0.8?
yes

Decide: is the reported value of AIRE transcriptional activation functional score for K133A equal to or greater than 0.8?
no

Decide: is the reported value of AIRE transcriptional activation functional score for T68V equal to or greater than 0.8?
no

Decide: is the reported value of AIRE transcriptional activation functional score for P492N equal to or greater than 0.8?
yes

Decide: is the reported value of AIRE transcriptional activation functional score for P539S equal to or greater than 0.8?
yes
